Cited source for all entries: PubChem BioAssay (NCI)

Test system: SNB-75 CNS
Test: NCI tumour cell line growth inhibition, 48 h
Could you please report measured TGI for the items listed next?

Inquiry: Consider the molecule `CC(=O)OCCOCCN1CCN(c2c(O)c3c(c(O)c2Cl)C(=O)C=CC3=O)CC1` . State its measured TGI.
Reply text: 3.71 µM

Inquiry: Consider the molecule C/C=C1\CCC2c3[nH]c4ccccc4c3CCN2C1 (stereo unspecified) . State its measured TGI.
Reply text: > 100 µM

Inquiry: Consider the molecule `Cn1c(=O)c2nc(NCCO)cnc2n(C)c1=O` . State its measured TGI.
Reply text: 42.4 µM

Inquiry: Consider the molecule Cc1cccc(C(=O)O)c1CC1NCCC2c3ccccc3NC12 (stereo unspecified) . State its measured TGI.
Reply text: > 100 µM

Inquiry: Consider the molecule `CC(C)N(/C(F)=N\C(=O)Nc1ccccc1C(F)(F)F)C(C)C` . State its measured TGI.
Reply text: > 100 µM

Inquiry: Consider the molecule `NC(=O)CNC(=O)[C@@H]1C[C@@H](OCCC(=O)O)CN1C(=O)OCc1ccccc1` . State its measured TGI.
Reply text: > 100 µM
